B1: FAM98B (parent)
chain: QLDKNSEVYQEVQAMFDTLGIPKS

# Variants of: B1
# assay: protein stability index of a GFP-peptide fusion (GPS, HEK-293T) (PSI 1-6); higher = more stable;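 also: lentivirally expressed fusions sorted by FACS into six bins by GFP to DsRed ratio, PSI derived from sequencing read proportions per bin multiplied by bin number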
# conditionSummary: c terminus: a fixed tail appended
Returns one of YES or NO; YES when protein stability index is >= 3.

mutantCode	cat
L19D	NO

Given the entry "F16H" , answer whether its protein stability index meets or surpasses 3.
NO

Given the entry "D3G" , answer whether its protein stability index meets or surpasses 3.
YES

Given the entry "Q13L" , answer whether its protein stability index meets or surpasses 3.
YES

Given the entry "T18A" , answer whether its protein stability index meets or surpasses 3.
YES

Given the entry "D3M" , answer whether its protein stability index meets or surpasses 3.
NO

Given the entry "V8M" , answer whether its protein stability index meets or surpasses 3.
YES

Given the entry "S24V" , answer whether its protein stability index meets or surpasses 3.
NO

Given the entry "A14P" , answer whether its protein stability index meets or surpasses 3.
YES
